# targetOrSystem: T1, KDR (1-3) (UniProt P35968 20-327, limits assumed)
# T1 construct: domain: KDR (1-3); Soluble KDR (1-3) at 1 ug/ml, captured on the plate by anti-KDR monoclonal antibody MAKD5; also called KDR (1-3) monomer
# T1 sequence (P35968 20-327 limits assumed): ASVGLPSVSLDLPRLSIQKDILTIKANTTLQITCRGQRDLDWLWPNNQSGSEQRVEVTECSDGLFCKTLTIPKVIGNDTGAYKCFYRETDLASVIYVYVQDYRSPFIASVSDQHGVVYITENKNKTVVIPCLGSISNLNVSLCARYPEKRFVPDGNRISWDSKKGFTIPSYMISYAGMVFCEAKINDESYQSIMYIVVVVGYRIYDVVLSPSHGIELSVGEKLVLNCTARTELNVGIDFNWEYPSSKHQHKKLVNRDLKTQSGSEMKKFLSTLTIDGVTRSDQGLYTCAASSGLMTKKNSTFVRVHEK
# assaySummary: competition ELISA, biotinylated native VEGF (8-109) as tracer, KDR (1-3) captured by mAb MAKD5
# Relative Binding Affinity values compiled below

Reference set (3 entries):
Answer with the recorded Relative Binding Affinity of LK-VRB-9s (ligand) APMAEGGGQNHHEVVKFMDVYRRSYCHPIETLVDIFQEYPDEIEYIFKPSCVPLMRCGGCCNSEMRECVPTEESNITMQIMRIKPHQGQHIGEMSFLQHNKCECRPKKD only.
0.5 fold of native VEGF (8-109)

Answer with the recorded Relative Binding Affinity of LK-VRB-3s (ligand) APMAEGGGQNHHEVVKIEDVFKRSSCHPIETLVDIFQEYPDEIEYIFKPSCVPLMRCGGCCNDEGLECVPTEESNITMQIMRIKPHQGQHIGEMSFLQHNKCECRPKKD only.
1 fold of native VEGF (8-109)

Answer with the recorded Relative Binding Affinity of LK-VRB-8s* (ligand) APMAEGGGQNHHEVVKFMDVLQRSYCHPIETLVDIFQEYPDEIEYIFKPSCVPLMRCGGCCNSEMRECVPTEESNITMQIMRIKPHQGQHIGEMSFLQHNKCECRPKKD only.
0.5 fold of native VEGF (8-109)

Next:
Answer with the recorded Relative Binding Affinity of LK-VRB-20s (ligand) APMAEGGGQNHHEVVKFMDVLRRSSCHPIETLVDIFQEYPDEIEYIFKPSCVPLMRCGGCCNSEMRECVPTEESNITMQIMRIKPHQGQHIGEMSFLQHNKCECRPKKD only.
2 fold of native VEGF (8-109)

Answer with the recorded Relative Binding Affinity of LK-VRB-12s (ligand) APMAEGGGQNHHEVVKFEDVYRRSYCHPIETLVDIFQEYPDEIEYIFKPSCVPLMRCGGCCNSEMRECVPTEESNITMQIMRIKPHQGQHIGEMSFLQHNKCECRPKKD only.
0.4 fold of native VEGF (8-109)

Answer with the recorded Relative Binding Affinity of LK-VRB-16s (ligand) APMAEGGGQNHHEVVKFMDVYRRSSCHPIETLVDIFQEYPDEIEYIFKPSCVPLMRCGGCCNSEMRECVPTEESNITMQIMRIKPHQGQHIGEMSFLQHNKCECRPKKD only.
0.6 fold of native VEGF (8-109)

Data origin, for the record: patent US7078382
